- Assay Name: Antagonist activity at H4R in human eosinophils assessed as inhibition of histamine-induced shape change by GAFS assay
Parameter Measured: IC50 (nM)

In [3]: df
Out[3]:
                        compound_string   u  observed_value
0  CN[C@@H]1CCN(c2cc(NCC3CC3)nc(N)n2)C1  nM            0.65
